Listing of recorded half-life by entry.
test: Stability in rat liver microsomes assessed as half life incubated for 60 mins by HPLC analysis; format: ADME, Microsome

[
  {
    "mol": "CCCCN1CCN(c2ccc(S(=O)(=O)Oc3cccc(I)c3)cc2)C1=O",
    "output.unit": "h",
    "half-life": 0.212
  },
  {
    "mol": "CCCCN1CCN(c2ccc(S(=O)(=O)Oc3cc(OC)cc(OC)c3)cc2)C1=O",
    "output.unit": "h",
    "half-life": 1.55
  },
  {
    "mol": "CCCCCN1CCN(c2ccc(S(=O)(=O)Oc3cccc(I)c3)cc2)C1=O",
    "output.unit": "h",
    "half-life": 1.03
  },
  {
    "mol": "CCCCCN1CCN(c2ccc(S(=O)(=O)Oc3cc(OC)c(OC)c(OC)c3)cc2)C1=O",
    "output.unit": "h",
    "half-life": 2.08
  },
  {
    "mol": "CCCCCN1CCN(c2ccc(S(=O)(=O)Oc3cccc(Cl)c3)cc2)C1=O",
    "output.unit": "h",
    "half-life": 1.83
  },
  {
    "mol": "CCCCCN1CCN(c2ccc(S(=O)(=O)Oc3cc(OC)cc(OC)c3)cc2)C1=O",
    "output.unit": "h",
    "half-life": 1.78
  },
  {
    "mol": "CCCCCN1CCN(c2ccc(S(=O)(=O)Oc3cc(Cl)cc(Cl)c3)cc2)C1=O",
    "output.unit": "h",
    "half-life": 2.67
  },
  {
    "mol": "CCCCN1CCN(c2ccc(S(=O)(=O)Oc3cccc(Cl)c3)cc2)C1=O",
    "output.unit": "h",
    "half-life": 0.367
  },
  {
    "mol": "CCCCN1CCN(c2ccc(S(=O)(=O)Oc3cc(OC)c(OC)c(OC)c3)cc2)C1=O",
    "output.unit": "h",
    "half-life": 0.302
  },
  {
    "mol": "CCCN1CCN(c2ccc(S(=O)(=O)Oc3cc(OC)c(OC)c(OO)c3)cc2)C1=O",
    "output.unit": "h",
    "half-life": 1.18
  },
  {
    "mol": "CCCCN1CCN(c2ccc(S(=O)(=O)Oc3cc(Cl)cc(Cl)c3)cc2)C1=O",
    "output.unit": "h",
    "half-life": 0.783
  }
]

* * *

Listing of recorded log10(IC50) by entry.
test system: HT-1080; assay: Antiproliferative activity against human HT-1080 cells assessed as cell growth inhibition incubated for 48 hrs by sulforhodamine B assay; format: functional, cell-based; conditions: HT-1080, 48 h
measured.endpoint: log10(IC50) (log10 of the value in µM)

[
  {
    "mol": "CCCCCN1CCN(c2ccc(S(=O)(=O)Oc3cccc(Cl)c3)cc2)C1=O",
    "log10(IC50)": 0.84
  },
  {
    "mol": "CCCCCN1CCN(c2ccc(S(=O)(=O)Oc3cc(OC)c(OC)c(OC)c3)cc2)C1=O",
    "log10(IC50)": 0.65
  },
  {
    "mol": "COc1ccc(/C=C\\c2cc(OC)c(OC)c(OC)c2)cc1O",
    "log10(IC50)": -2.22
  },
  {
    "mol": "CCCCN1CCN(c2ccc(S(=O)(=O)Oc3cc(OC)c(OC)c(OC)c3)cc2)C1=O",
    "log10(IC50)": 0.08
  },
  {
    "mol": "CCCCCN1CCN(c2ccc(S(=O)(=O)Oc3cc(OC)cc(OC)c3)cc2)C1=O",
    "log10(IC50)": 0.83
  },
  {
    "mol": "CCCCCN1CCN(c2ccc(S(=O)(=O)Oc3cc(Cl)cc(Cl)c3)cc2)C1=O",
    "log10(IC50)": 0.66
  },
  {
    "mol": "CCCCCN1CCN(c2ccc(S(=O)(=O)Oc3cccc(I)c3)cc2)C1=O",
    "log10(IC50)": 0.61
  }
]
